B1: TPR t1 (parent)
chain: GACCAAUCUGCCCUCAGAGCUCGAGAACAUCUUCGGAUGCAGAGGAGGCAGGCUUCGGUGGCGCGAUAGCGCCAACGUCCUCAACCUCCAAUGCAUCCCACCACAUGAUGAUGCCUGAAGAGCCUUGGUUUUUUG

- Variants of: B1
- run.description: polymerase ribozyme fitness, log enrichment relative to wild type (log ratio); higher = more active; in vitro selection for triplet polymerase activity
Readings of polymerase ribozyme fitness (log ratio) for the listed variants
Give the figure by itself; no unit, no explanation.

The following variants have reported results that may help.
>  <mutation.string>
G69U U78G A91C U92G

>  <polymerase ribozyme fitness (log ratio)>
-0.788

$$$$
>  <mutation.string>
C94U G117C U130A

>  <polymerase ribozyme fitness (log ratio)>
-6.35

$$$$
>  <mutation.string>
C62A G77U

>  <polymerase ribozyme fitness (log ratio)>
-1.77

$$$$
>  <mutation.string>
A5G A91C

>  <polymerase ribozyme fitness (log ratio)>
-1.57

$$$$
>  <mutation.string>
C40U U55C C72U U96C A100C A119U G127U

>  <polymerase ribozyme fitness (log ratio)>
-4.37

$$$$

Field: next variant
*Q* Note polymerase ribozyme fitness (log ratio) for the variant shown: G17A G36U G120C C123U C124G
*A* -1.43
